Measured values drawn from ChEMBL document CHEMBL5029155 for this set.

- target desc: UniProtKB P10632
- Sequence (P10632 whole entry): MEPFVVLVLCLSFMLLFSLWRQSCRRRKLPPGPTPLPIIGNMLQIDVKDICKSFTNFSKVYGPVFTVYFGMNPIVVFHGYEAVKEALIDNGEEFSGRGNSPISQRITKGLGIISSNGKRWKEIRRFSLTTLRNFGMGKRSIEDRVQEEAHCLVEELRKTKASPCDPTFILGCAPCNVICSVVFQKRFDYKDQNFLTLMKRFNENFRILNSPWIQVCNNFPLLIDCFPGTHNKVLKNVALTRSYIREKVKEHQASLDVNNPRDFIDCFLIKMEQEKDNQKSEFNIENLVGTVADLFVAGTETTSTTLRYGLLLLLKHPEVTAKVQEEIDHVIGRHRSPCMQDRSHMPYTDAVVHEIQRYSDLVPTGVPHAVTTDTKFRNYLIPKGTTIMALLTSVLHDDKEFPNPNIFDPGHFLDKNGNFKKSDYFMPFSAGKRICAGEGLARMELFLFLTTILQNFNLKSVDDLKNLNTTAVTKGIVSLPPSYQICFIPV
- experimental details: Inhibition of CYP2C8 in human liver microsomes using amodiaquine as substrate at 10 uM
- Assay type: ADME
- condition: probe amodiaquine
readout type: inhibition at 10 µM (%)
Only the number, expressed in %, is required.

Param item: "COc1cc(C(=O)c2nc(-c3ccc(C)c(O)c3)ccc2F)cc(OC)c1OC" ; param system: UniProtKB P10632; output inhibition at 10 µM: 92.5

----------
- experimental details: Metabolic stability in human liver microsomes assessed as intrinsic clearance in presence of NADPH regenerating system by UPLC-MS analysis
- Assay type: ADME, Microsome
- condition: read-out: CLH
readout type: CLint scaled (mL/min/kg)
Your answer is read as mL/min/kg, so omit the unit and give the number.

So for "COc1cc(C(=O)c2nc(-c3ccc(C(F)F)cc3)ccc2F)cc(OC)c1OC" , the logged CLint scaled turned out to be 38.1

Field CLint scaled (entry "COc1cc(C(=O)c2cc(C)cc(-c3ccc(C)cc3)n2)cc(OC)c1OC" ) reads 28.8

"COc1cc(C(=O)c2cc(OC)c(OC)c(OC)c2)nc(-c2ccc(C)c(O)c2)c1" yielded CLint scaled of 29.2

Form: molecule = "COc1cc(C(=O)c2cccc(-c3ccc(C)cc3)n2)cc(OC)c1OC" ; CLint scaled = 317

Per the record, "COc1cc(C(=O)c2cccc(-c3ccc(C)c(O)c3)n2)cc(OC)c1OC" has CLint scaled of 116

"COc1cc(-c2n[nH]c3ccc(-c4ccc(C)c(O)c4)nc23)cc(OC)c1OC" yielded CLint scaled of 6.1

// sample "COc1cc(C(=O)c2cc(OC)c(OC)c(OC)c2)nc(-c2ccc(C)cc2)c1" , its CLint scaled was 45

Lookup result for "COc1cc(C(=O)c2nc(-c3ccc(C)c(O)c3)ccc2F)cc(OC)c1OC" ; measured CLint scaled: 42.3

Given item "CCc1c(OC)cc(C(=O)c2cccc(-c3ccc(C)c(O)c3)n2)cc1OC" , the value recorded as its CLint scaled is 22.9

Noted for "COc1cc(C(=O)c2nc(-c3ccc(C)cc3)ccc2F)cc(OC)c1OC" : its CLint scaled reads 133

The measured CLint scaled associated with "COc1cc(C(=O)c2cncc(-c3ccc(C)c(O)c3)n2)cc(OC)c1OC" reads 26.6

For "COc1cc(C(=O)c2ccnc(-c3ccc(C)c(O)c3)n2)cc(OC)c1OC" the molecule record lists CLint scaled as 142

Lab note: "COc1cc(C(=O)c2cccc(-c3ccc(C(F)F)cc3)n2)cc(OC)c1OC" gave CLint scaled of 240

Record "COc1cc(C(=O)c2cccc(-c3ccc4c(c3)CCN4)n2)cc(OC)c1OC" , field CLint scaled: 83.6

# CLint scaled (molecule: "COCCOc1c(OC)cc(C(=O)c2cccc(-c3ccc(C)cc3)n2)cc1OC" ) is 136

The molecule identified as "COc1cc(C(=O)c2c[nH]c(-c3ccc(C)c(O)c3)n2)cc(OC)c1OC" registered its CLint scaled at 8.8

// sample "COc1cc(C(=O)c2cccc(-c3ccc(C)cc3)n2)cc2c1OCCO2" , its CLint scaled was 172
